- Test system: M14 melanoma
- MEASUREMENT_PROTOCOL: NCI-60 one-dose screen, 48 h
- ASSAY_CONDITIONS: 10 µM
This is part of a sample that, as a whole, favours compounds with a hit. Of some 83,000 tested, about 20% had one in any assay. The source made the active and inactive calls. Rule for the calls: active = growth percent below 10; inactive = the rest.
Result category, one only: Yes = active, No = inactive

Enquiry: Write down the call the test reported for this compound. Item: CCOC(=O)c1ccc(NC(=O)Nc2nncs2)cc1
Return: Yes

---
Enquiry: Write down the call the test reported for this compound. Item: CCOC(=O)CNC(=O)Nc1ccc(Oc2ccc(NC(=O)NCC(=O)OCC)cc2)cc1
Return: No

Enquiry: Repeat with CS(=O)(=O)Nc1ccc([N+](=O)[O-])cc1Oc1ccccc1
Return: No

Enquiry: Repeat with CC(=O)n1nc(C(=O)OC(C)(C)C)c2cc(F)c(F)cc21
Return: No

###

- Test system: UO-31 renal
- MEASUREMENT_PROTOCOL: NCI-60 one-dose screen, 48 h
- ASSAY_CONDITIONS: 10 µM
This is part of a sample that, as a whole, favours compounds with a hit. Of some 83,000 tested, about 20% had one in any assay. Calls of active or inactive are those of the source. How the source made its calls: active means growth percent below 10; inactive means the rest.
Result category, one only: 1 (yes) (active), 0 (no) (inactive)

// known answers, use as guide
Enquiry: Write down the call the test reported for this molecule. Item: COc1ccc(-c2nc(NC(=O)CS(=O)(=O)c3ccc(F)cc3)sc2C)cc1
Return: 0 (no)

Enquiry: Repeat with CCCc1ccnc(NS(=O)(=O)c2ccc(N)cc2)n1
Return: 0 (no)

---
Enquiry: Write down the call the test reported for this molecule. Item: COc1ccc(N2CCN(c3nc(-c4ccccc4)c(C#N)c(=O)[nH]3)CC2)cc1
Return: 0 (no)

Enquiry: Repeat with Nc1cc(O)cc(O)c1
Return: 0 (no)

Enquiry: Repeat with Cc1ccc2c(c1)-c1cc(C)nn1-c1ccc(C#N)cc1O2
Return: 0 (no)

Enquiry: Repeat with O=C(O)c1ccc(CNc2ccc(C(=O)CCl)cc2)cc1
Return: 0 (no)

Enquiry: Repeat with COc1ccc(-c2cc(/C=C/C(=O)c3ccc(N)cc3)[nH]n2)cc1OC
Return: 0 (no)

Enquiry: Repeat with CC(=O)Oc1c(C)c(C)c2c(c1C)CCC(C)(CC(=O)OCCCCCCCCCCC[P+](c1ccccc1)(c1ccccc1)c1ccccc1)O2 (configuration not stated)
Return: 1 (yes)

Enquiry: Repeat with COc1cc(C(=O)n2nc(N)c3c(C)cc(C)nc32)cc(OC)c1OC
Return: 0 (no)

Enquiry: Repeat with COc1ccc(Cn2cc3c(c2-c2cc(OC)c(OC)c(OC)c2)CCc2cnoc2-3)cc1[N+](=O)[O-]
Return: 0 (no)

Enquiry: Repeat with CCCCCCN=C(N)CCCCCCCCCCC(N)=NCCCCCC
Return: 0 (no)

Enquiry: Repeat with CC(Oc1ccc(Cl)cc1)c1ccccc1 (configuration not stated)
Return: 0 (no)

Enquiry: Repeat with O=[N+]([O-])C1CC2C=CC1C2 (configuration not stated)
Return: 0 (no)

Enquiry: Repeat with O=C(Nc1ccc(Oc2ccc(Nc3nc4ccccc4s3)cc2)cc1)Nc1ccc(Cl)c(Cl)c1
Return: 0 (no)

Enquiry: Repeat with COc1ccc(/C=C(\c2cc(OC)c(OC)c(OC)c2)c2nnc(-c3cccs3)o2)cc1
Return: 0 (no)

Enquiry: Repeat with COc1ccc(-c2nc(-c3ccccc3)c(-c3ccccc3)[nH]2)cc1OC1CCCC1
Return: 0 (no)

Enquiry: Repeat with COc1ccc(NC(=O)CCn2cnc3c(cc(-c4ccccc4)n3-c3ccccc3)c2=O)cc1
Return: 0 (no)

###

- System: NCI-H322M lung
- MEASUREMENT_PROTOCOL: NCI-60 one-dose screen, 48 h
- ASSAY_CONDITIONS: 10 µM
About 83,000 compounds went through this panel and 20% of them were active in at least one assay; those are over-represented in the sample as a whole. Activity calls are given as the source filed them. Rule for the calls: active = growth percent below 10; inactive = the rest.
Result category, one only: yes (1) = active, no (0) = inactive

// known answers, use as guide
Enquiry: Write down the call the test reported for this compound. Item: Cc1cc(C)c(/C=C2\C(=O)Nc3ccc(NC(=O)CCCCCCC(=O)NO)cc32)[nH]1
Return: no (0)

Enquiry: Repeat with Cc1nc2sccn2c1-c1csc(Nc2cccc(Cl)c2C)n1
Return: no (0)

Enquiry: Repeat with O=C(C=P(c1ccccc1)(c1ccccc1)c1ccccc1)c1ccc(Br)cc1
Return: no (0)

Enquiry: Repeat with O=C1/C(=C/c2ccc(O)cc2O)N=C2SCCCN12
Return: no (0)

Enquiry: Repeat with Nc1c(C(=O)Nc2ccccc2F)sc2nc3c(cc12)C(=O)CCC3
Return: no (0)

Enquiry: Repeat with CC(C)OCc1cc(CN2CCN(c3cccc(Cl)c3)CC2)c(O)c2ncccc12
Return: yes (1)

Enquiry: Repeat with O=S(=O)(O)C1(O)CCCCC1
Return: no (0)

Enquiry: Repeat with COc1cc(-c2nc3ccccc3[nH]2)ccc1OCC(=O)N=Nc1c(O)[nH]c2ccccc12
Return: no (0)

Enquiry: Repeat with COc1cc(/C=C/C(=O)c2cc(-c3ccc(F)cc3)ccc2O)cc(OC)c1OC
Return: no (0)

---
Enquiry: Write down the call the test reported for this compound. Item: Nc1c(CNCc2nnn(Cc3ccccc3)c2N)nnn1Cc1ccccc1
Return: no (0)

###

- System: HCT-15 colon
- MEASUREMENT_PROTOCOL: NCI-60 one-dose screen, 48 h (100 = growth as untreated, 0 = no growth, -100 = all killed)
- ASSAY_CONDITIONS: 10 µM
This is part of a sample that, as a whole, favours compounds with a hit. Of some 83,000 tested, about 20% had one in any assay.
EXPERIMENTAL_READOUT: growth (%)
Express your answer in %, writing the number without its unit.

Solved cases (8 shown):
Enquiry: Any idea what growth was measured for Cc1cc(C)c(C(=O)OC(C)CNC2CCCCC2)c(C)c1 (stereo not given) ?
Return: 97.5

Enquiry: Repeat with Nc1nsc(C(=O)c2ccc(O)cc2)n1
Return: 102

Enquiry: Repeat with COc1ccc2nc(-c3ccccc3)cc(C(C)=O)c2c1
Return: 94.9

Enquiry: Repeat with COc1ccc(C(=O)c2sc3nc(-c4cccs4)ccc3c2N)cc1OC
Return: 37.4

Enquiry: Repeat with O=[N+]([O-])c1ccc(-c2nc(-c3ccccc3)c(-c3ccccc3)n2-c2ccccc2)cc1
Return: 12

Enquiry: Repeat with COc1ccc(-c2nc(-c3ccccc3)c(-c3ccccc3)[nH]2)cc1OC1CCCC1
Return: 19.8

Enquiry: Repeat with O=C(c1ccccc1)C(Sc1ccccc1)c1ccccc1 (stereo not given)
Return: 60.7

Enquiry: Repeat with CCOc1nc(-c2ccccc2)cc2c(O)c(C(=O)N/N=C/c3ccc(OC)cc3)[nH]c(=O)c12
Return: 110

---
Enquiry: Any idea what growth was measured for CC1(C)CNC(=O)N1 ?
Return: 98.8

Enquiry: Repeat with COc1ccc(-c2cc(/C=C3\C(=O)Nc4cc(Cl)ccc43)[nH]n2)cc1
Return: 28.6

Enquiry: Repeat with C=CCn1ccc(=O)nc1SC
Return: 110

Enquiry: Repeat with CCC(OC(=O)CC(C)C)c1ccccc1 (stereo not given)
Return: 101

Enquiry: Repeat with COc1ccc(C(=O)/C=C/c2cc(-c3ccc(OC)c(OC)c3)n[nH]2)cc1OC
Return: -68.1

Enquiry: Repeat with Cc1noc(C)c1-c1ccc2nc(NC(=O)[C@H]3CCN(C#N)C3)cn2c1
Return: 84.4

###

- System: HOP-62 NSCLC
- MEASUREMENT_PROTOCOL: NCI-60 one-dose screen, 48 h
- ASSAY_CONDITIONS: 10 µM
About 83,000 compounds went through this panel and 20% of them were active in at least one assay; those are over-represented in the sample as a whole. The source made the active and inactive calls. Rule for the calls: active = growth percent below 10; inactive = the rest.
Result category, one only: class 1 = active, class 0 = inactive

Enquiry: Write down the call the test reported for this compound. Item: Clc1cc(Cl)c(OCCCCCCN2CCNCC2)c(Cl)c1
Return: class 0

Enquiry: Repeat with CCOC(=O)Nc1ccc2c(c1)C(=O)N(CC)c1ccccc1O2
Return: class 0

Enquiry: Repeat with COc1ccc(/C(=C/c2cc(OC)c(OC)cc2[N+](=O)[O-])C(=O)O)cc1
Return: class 0

Enquiry: Repeat with O=C(O)CNS(=O)(=O)c1ccc(OCCOc2ccc(S(=O)(=O)NCC(=O)O)cc2)cc1
Return: class 0

Enquiry: Repeat with COC(=O)[C@]12CC[C@@H](C)[C@H](C)[C@@H]1C1=CC[C@@H]3[C@@]4(C)CC(=O)[C@H](O)[C@@]5(C)COC(=C45)C[C@@]3(C)[C@]1(C)CC2
Return: class 1

---
Enquiry: Write down the call the test reported for this compound. Item: Cc1nnc2c3nnc(-c4ccc(Cl)cc4)n3c3ccccc3n12
Return: class 0

Enquiry: Repeat with CCOC(=O)C(CCC1=NC(C)(C)CC(C)O1)C(=O)OCC (stereo not drawn)
Return: class 0

Enquiry: Repeat with O=[N+]([O-])c1ccc(S(=O)(=O)OCCCCOS(=O)(=O)c2ccc([N+](=O)[O-])cc2)cc1
Return: class 0

Enquiry: Repeat with COc1ccc(C2C=C(c3ccc(OC)c(OC)c3)N=C3SC=CN32)c(Br)c1 (stereo not drawn)
Return: class 0

Enquiry: Repeat with CS(=O)(=O)Nc1ccc([N+](=O)[O-])cc1Oc1ccccc1
Return: class 0
